# Tested on: UACC-257
# method.summary: NCI tumour cell line growth inhibition, 48 h
Activity calls are given as the source filed them. Cut-off read from the data, not from the text of the source: active = GI50 up to about 1.1 µM and inactive = higher.
Return exactly one item of active, inactive

IN: Which outcome did this test record for the molecule CCCOC(=O)C1C2CCC(O2)C1C(=O)O (centres undefined) ?
OUT: inactive

IN: Recorded test call requested for `CC1(C)OP(=O)(O)C=C1Sc1ccc([N+](=O)[O-])cc1[N+](=O)[O-]`
OUT: inactive

IN: Tell me the recorded outcome of this test for O=C(CC(=O)N1N=C(c2ccccc2)C(/N=N/c2ccc(C(=O)O)cc2)C1=O)Nc1ccc(F)cc1 (centres undefined) .
OUT: inactive

IN: What did the test return for O=C(NN1C(=O)C(Cl)C1c1c(O)ccc2ccccc12)c1ccccc1O (centres undefined) ?
OUT: inactive

IN: What did this assay record as the result for `O=C1c2ccccc2C(=O)c2c1ccc1c3ccccc3n(-c3ccccc3)c21` ?
OUT: inactive

IN: What call does the record list for `CCCCC(=O)OC[n+]1ccc2c(C)c3[nH]c4ccccc4c3c(C)c2c1` ?
OUT: inactive

IN: For O=C1/C(=C/c2ccc(Cl)cc2)CCC1CCN1CCOCC1 (centres undefined) , which call appears in the assay record?
OUT: inactive

IN: Which outcome was entered for the molecule `CC(=O)O[C@@H]1C[C@@]2(C)[C@@H]3CC=C4[C@@H](C[C@H](O)C(=O)C4(C)C)[C@]3(C)C(=O)C[C@]2(C)[C@H]1[C@@](C)(O)C(=O)/C=C/C(C)(C)OC(C)=O` in this test?
OUT: active

IN: What classification did O=C(O)C1CC(C2CCCCN2)CN2CCCCC12 (centres undefined) end up with in this test?
OUT: inactive

====

Consider the following compounds; for each one, report its GI50.
# System: RXF 393
# method.summary: NCI tumour cell line growth inhibition, 48 h
The source made the active and inactive calls. Cut-off read from the data, not from the text of the source: active = GI50 up to about 1.1 µM and inactive = higher.

IN: # query: GI50 of entry `Oc1cc(-c2ccc(Cl)cc2)cn2c1nc1ccccc12`
OUT: > 100 µM (inactive)

IN: Name the reported GI50 value associated with the compound COc1cccc2c1C1(O)C2CCCC12OCCCO2 (stereo not given)
OUT: > 100 µM (inactive)

IN: Returns the measured GI50 for the input compound. Input: `[N-]=[N+]=Nc1ccccc1-[n+]1noc([O-])c1Br`
OUT: > 100 µM (inactive)

IN: Quick one: GI50 of `CN(C)CCNC(=O)c1cccc2nc3c(nc12)-c1ccccc1C3=O` ?
OUT: 16.8 µM (inactive)

IN: Entry under review: `Oc1ccc(-c2nc(-c3ccc4ccccc4n3)c(-c3ccc(F)cc3)[nH]2)cc1` . Reported GI50?
OUT: 15.2 µM (inactive)

IN: Form field: reported GI50 of COC(=O)C1Cc2c(n(C)c3ccccc23)C(CCC(=O)O)N1Cc1ccccc1 (stereo not given)
OUT: 28.6 µM (inactive)

IN: Suppose we examine the compound N#CC1(C#N)C2C=CC(c3coc4cccc2c34)C1(C#N)C#N (stereo not given) ; what GI50 value has been reported?
OUT: 3.91 µM (inactive)

IN: // GI50 lookup, key: Nc1nc(Br)nc2ncn(C3CC(O)C(CO)O3)c12 (stereo not given)
OUT: > 100 µM (inactive)

IN: Form field: reported GI50 of `NC(=O)C(C(N)=O)=C(O)/C(O)=C/C(=O)c1ccccc1`
OUT: > 100 µM (inactive)

IN: GI50 for CCCCCCCCCCCCCCCC(=O)OCC1OC(N2C(=O)/C(=N\NC(N)=S)c3ccc([N+](=O)[O-])cc32)C(OC(C)=O)C1OC(C)=O (stereo not given) ?
OUT: > 100 µM (inactive)
